Data provenance: patent US5498632A

- Tested on: Gram+ bacterial strains
- test-protocol: Mean MIC in broth and resistant strain number, Gram+ strains
- Format: cell-based
- experimental-context: 18 h, versus susceptible strains
Quick reference for MIC among some compounds
readout-name: MIC (µg/mL)

1. CCCCCCCCCCCOC(=O)CC(C[N+](C)(C)C)OC(=O)CCCCCCCCCC (centres unmarked) [ST 982] | 2.6
2. CCCCCCCCCCCOC(=O)CC(C[N+](C)(C)C)OC(=O)CCCCCC (centres unmarked) [ST 1036] | 2.45
3. CCCCCCCCCCCOC(=O)CC(C[N+](C)(C)C)OC(=O)CC(C)C (centres unmarked) [ST 722] | 3.12
4. CCCCCCCCCCCCCCCCOC(=O)CC(C[N+](C)(C)C)OC(=O)CC(C)C (centres unmarked) [ST 1001] | 5.35
5. CCCCCCCCCCCCCOC(=O)CC(C[N+](C)(C)C)OC(=O)CCCCCC (centres unmarked) [ST 1050] | 4.06
6. CCCCCCCCCCCCCOC(=O)CC(C[N+](C)(C)C)OC(=O)CC(C)C (centres unmarked) [ST 1033] | 2.11
7. CCCCCCCCCCCCCOC(=O)CC(C[N+](C)(C)C)OC(=O)CCCCCCC (centres unmarked) [ST 1053] | 4.37
8. CCCCCCCCCCCOC(=O)CC(C[N+](C)(C)C)OC(=O)CCCCCCC (centres unmarked) [ST 1000] | 2.49
9. CCCCCCCCCCCCCOC(=O)CC(C[N+](C)(C)C)OC(=O)C(C)CCCC (centres unmarked) [ST 1051] | 6.56
10. CCCCCCCCCCCCCOC(=O)CC(C[N+](C)(C)C)OC(=O)CCCCC (centres unmarked) [ST 1052] | 2.49
11. CCCCCCCCCCCCOC(=O)CC(C[N+](C)(C)C)OC(=O)CC(C)C (centres unmarked) [ST 1037] | 2.34
12. CCCCCCCCCCCCOC(=O)CC(C[N+](C)(C)C)OC(=O)C(C)C (centres unmarked) [ST 1038] | 3.48
13. CCCCCCCCCCCOC(=O)CC(C[N+](C)(C)C)OC(=O)CCC(C)C (centres unmarked) [ST 1034] | 2

---

- Test system: Bacillus pumilus (CN 607)
- test-protocol: MIC in broth, Gram+ strains
- Assay type: cell-based
- experimental-context: B. pumilus (CN 607), Mueller-Hinton broth, 37° C., 18 hours, read-out: Minimal Inhibitory Concentration (MIC)
Quick reference for MIC among some compounds
readout-name: MIC (µg/mL)

1) CCCCCCCCCCCCCOC(=O)CC(C[N+](C)(C)C)OC(=O)C(C)CCCC (stereo not drawn) | 1.56
2) CCCCCCCCCCCCCOC(=O)CC(C[N+](C)(C)C)OC(=O)CC(C)C (stereo not drawn) | 1.56
3) CCCCCCCCCCCCOC(=O)CC(C[N+](C)(C)C)OC(=O)CC(C)C (stereo not drawn) | 1.56
4) CCCCCCCCCCCCCCCCOC(=O)CC(C[N+](C)(C)C)OC(=O)CC(C)C (stereo not drawn) | 6.25
5) CCCCCCCCCCCCCOC(=O)CC(C[N+](C)(C)C)OC(=O)CCCCC (stereo not drawn) | 1.56
6) CCCCCCCCCCCOC(=O)CC(C[N+](C)(C)C)OC(=O)CC(C)C (stereo not drawn) | 1.56
